Entries annotated with measured pIC50
- tgt: human TLR7 (Homo sapiens)
- Construct: host or cells: HEK-Blue cells (HEK293-derived reporter line)
- Sequence (Q9NYK1 27-1049): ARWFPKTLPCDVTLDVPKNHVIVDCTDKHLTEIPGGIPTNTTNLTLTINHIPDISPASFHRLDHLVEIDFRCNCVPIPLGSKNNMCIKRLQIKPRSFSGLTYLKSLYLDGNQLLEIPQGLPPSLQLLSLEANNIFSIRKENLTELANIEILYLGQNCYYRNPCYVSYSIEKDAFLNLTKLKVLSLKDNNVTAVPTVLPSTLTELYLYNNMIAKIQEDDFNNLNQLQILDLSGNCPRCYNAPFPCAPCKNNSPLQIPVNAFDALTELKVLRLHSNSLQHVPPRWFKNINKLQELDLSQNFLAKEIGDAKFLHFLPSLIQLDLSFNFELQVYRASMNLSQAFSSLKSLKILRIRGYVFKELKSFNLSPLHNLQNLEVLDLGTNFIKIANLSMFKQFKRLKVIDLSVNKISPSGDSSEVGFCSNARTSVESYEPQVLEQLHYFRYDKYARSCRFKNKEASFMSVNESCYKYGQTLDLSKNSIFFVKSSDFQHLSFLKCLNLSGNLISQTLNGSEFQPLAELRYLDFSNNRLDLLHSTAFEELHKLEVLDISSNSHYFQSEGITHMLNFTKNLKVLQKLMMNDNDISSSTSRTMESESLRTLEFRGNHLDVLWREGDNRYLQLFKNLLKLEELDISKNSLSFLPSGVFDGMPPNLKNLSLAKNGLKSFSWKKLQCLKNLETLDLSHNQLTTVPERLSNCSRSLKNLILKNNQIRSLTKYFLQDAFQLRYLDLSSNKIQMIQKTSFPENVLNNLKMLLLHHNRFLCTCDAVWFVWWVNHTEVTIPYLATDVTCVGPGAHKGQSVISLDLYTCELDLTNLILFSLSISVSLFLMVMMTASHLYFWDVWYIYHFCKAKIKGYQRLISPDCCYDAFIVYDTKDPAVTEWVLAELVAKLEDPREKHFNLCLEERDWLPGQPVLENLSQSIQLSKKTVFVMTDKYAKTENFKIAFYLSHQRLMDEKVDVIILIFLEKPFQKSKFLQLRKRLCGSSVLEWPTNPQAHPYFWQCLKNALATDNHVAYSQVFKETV
- assayExplanation: TLR7 inhibition reporter assay (HEK-Blue cells, SEAP reporter, gardiquimod stimulation)
- Assay type: cell-based
- runConditions: HEK-Blue cells overexpressing human TLR7, SEAP reporter, gardiquimod 7.5 μM
pIC50: −log10 of the molar value.

The reported pIC50 of the compound CCc1c(-c2ccn3ncnc3c2)[nH]c2ccc(C3CCNCC3)cc12 [Example 198] was > 7.00

The reported pIC50 of the compound COc1cc(-c2[nH]c3ccc(C4CCN(C5COC5)CC4)cc3c2C(C)C)cc2nccn12 [Example 712] was 6.00 to 7.00

The reported pIC50 of the compound CCc1c(-c2ccnc3[nH]ncc23)[nH]c2ccc(C3CCN(Cc4csnn4)CC3)cc12 [Example 930] was 6.00 to 7.00

More entries:
The reported pIC50 of the compound Cc1nc2cc(-c3[nH]c4ccc(C5CCN(C(=O)CC(C)(C)O)CC5)cc4c3C(C)C)ccn2n1 [Example 601] was > 7.00

The reported pIC50 of the compound CC(C)c1c(-c2ccnc3[nH]c(=O)oc23)[nH]c2ccc(C3CCNCC3)cc12 [Example 58] was 4.30 to 6.00

The reported pIC50 of the compound CC(C)c1c(-c2cc(F)c3nccn3c2)[nH]c2ccc(C3CCN(CC(=O)N(C)C)CC3)cc12 [Example 408] was > 7.00

###

- tgt: human TLR9 (Homo sapiens, UniProt Q9NR96)
- Sequence (Q9NR96 26-1032): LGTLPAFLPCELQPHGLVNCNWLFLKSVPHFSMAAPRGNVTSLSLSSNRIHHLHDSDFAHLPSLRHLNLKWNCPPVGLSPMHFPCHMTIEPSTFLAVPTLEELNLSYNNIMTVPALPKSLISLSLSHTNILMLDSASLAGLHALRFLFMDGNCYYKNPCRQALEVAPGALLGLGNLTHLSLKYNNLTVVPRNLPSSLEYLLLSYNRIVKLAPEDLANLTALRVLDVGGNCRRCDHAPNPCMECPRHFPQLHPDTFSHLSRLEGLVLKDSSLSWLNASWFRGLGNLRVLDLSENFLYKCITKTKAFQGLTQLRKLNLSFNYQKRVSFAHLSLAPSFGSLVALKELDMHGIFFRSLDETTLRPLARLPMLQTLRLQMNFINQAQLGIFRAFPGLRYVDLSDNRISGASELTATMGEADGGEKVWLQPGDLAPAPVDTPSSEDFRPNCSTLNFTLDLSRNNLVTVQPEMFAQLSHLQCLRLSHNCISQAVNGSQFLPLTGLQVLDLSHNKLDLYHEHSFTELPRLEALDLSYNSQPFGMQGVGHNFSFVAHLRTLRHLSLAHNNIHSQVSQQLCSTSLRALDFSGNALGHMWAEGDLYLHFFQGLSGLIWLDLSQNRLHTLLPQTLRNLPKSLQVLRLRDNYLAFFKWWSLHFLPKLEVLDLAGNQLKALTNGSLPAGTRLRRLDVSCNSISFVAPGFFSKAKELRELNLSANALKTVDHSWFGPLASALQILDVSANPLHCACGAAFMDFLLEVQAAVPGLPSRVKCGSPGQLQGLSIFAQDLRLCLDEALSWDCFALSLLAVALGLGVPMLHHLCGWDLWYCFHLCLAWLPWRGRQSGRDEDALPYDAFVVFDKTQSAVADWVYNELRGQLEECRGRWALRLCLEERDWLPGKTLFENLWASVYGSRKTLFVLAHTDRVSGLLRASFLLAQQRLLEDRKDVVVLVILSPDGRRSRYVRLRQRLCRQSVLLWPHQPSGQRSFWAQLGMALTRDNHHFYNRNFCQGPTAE
- assayExplanation: TLR9 inhibition reporter assay (HEK-Blue cells, SEAP reporter, ODN2006 stimulation)
- runConditions: HEK-Blue cells overexpressing human TLR9, SEAP reporter, ODN2006 5 nM
Entries annotated with measured IC50

The reported IC50 of the molecule CNC(=O)CN1CCC(c2ccc3[nH]c(-c4cc(C)c5ncsc5n4)c(C(C)C)c3c2)CC1 was 1000 to 50000 nM

The reported IC50 of the molecule CC(C)c1c(-c2ccnc3[nH]ncc23)[nH]c2cc(F)c(C3CCN(CC4CCNC4)CC3)cc12 (stereo not shown) was < 100 nM

More entries:
The reported IC50 of the molecule Cc1c(-c2[nH]c3ccc(C4CCN(CC(C)(C)O)CC4)cc3c2C(C)C)nn2ncnc2c1C was 1000 to 50000 nM

The reported IC50 of the molecule CNC(=O)CN1CCC(c2ccc3[nH]c(-c4cnc5nn(C)cc5c4)c(C(C)C)c3c2)CC1 was 1000 to 50000 nM

###

- tgt: human TLR8 (Homo sapiens, UniProt Q9NR97)
- Construct: host or cells: HEK-Blue cells (HEK293-derived reporter line)
- Sequence (Q9NR97 27-1041): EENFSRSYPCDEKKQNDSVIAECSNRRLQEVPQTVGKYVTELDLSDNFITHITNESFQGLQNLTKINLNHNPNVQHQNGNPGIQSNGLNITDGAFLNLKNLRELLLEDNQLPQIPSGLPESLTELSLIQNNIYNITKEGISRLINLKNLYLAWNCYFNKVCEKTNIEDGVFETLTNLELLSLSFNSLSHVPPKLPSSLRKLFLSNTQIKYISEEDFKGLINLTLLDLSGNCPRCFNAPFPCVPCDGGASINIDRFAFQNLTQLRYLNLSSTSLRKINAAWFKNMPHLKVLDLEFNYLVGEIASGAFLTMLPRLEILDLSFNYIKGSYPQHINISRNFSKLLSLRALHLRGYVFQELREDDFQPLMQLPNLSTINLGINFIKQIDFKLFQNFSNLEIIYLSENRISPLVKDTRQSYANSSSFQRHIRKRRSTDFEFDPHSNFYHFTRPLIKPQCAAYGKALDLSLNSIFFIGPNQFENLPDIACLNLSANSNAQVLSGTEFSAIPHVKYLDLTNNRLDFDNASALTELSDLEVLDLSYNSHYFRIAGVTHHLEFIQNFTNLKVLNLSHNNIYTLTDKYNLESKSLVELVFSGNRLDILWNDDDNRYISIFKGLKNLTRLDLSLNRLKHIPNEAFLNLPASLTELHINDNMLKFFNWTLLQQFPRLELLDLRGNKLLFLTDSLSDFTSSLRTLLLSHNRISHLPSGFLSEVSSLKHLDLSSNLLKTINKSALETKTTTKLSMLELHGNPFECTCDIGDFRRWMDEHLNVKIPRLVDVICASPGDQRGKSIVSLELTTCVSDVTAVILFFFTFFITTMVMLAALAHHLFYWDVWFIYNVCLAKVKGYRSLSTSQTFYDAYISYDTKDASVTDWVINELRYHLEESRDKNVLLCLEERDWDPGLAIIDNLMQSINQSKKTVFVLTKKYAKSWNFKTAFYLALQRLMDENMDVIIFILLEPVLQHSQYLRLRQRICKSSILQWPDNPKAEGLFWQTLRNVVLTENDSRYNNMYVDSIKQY
- assayExplanation: TLR8 inhibition reporter assay (HEK-Blue cells, SEAP reporter, R848 stimulation)
- Type: cell-based
- runConditions: HEK-Blue cells overexpressing human TLR8, SEAP reporter, R848 15.9 μM
pIC50: −log10 of the molar value.
Entries annotated with measured pIC50

These recorded examples may help you get a feel for the data.
Entry Cc1cc(-c2[nH]c3ccc(C4CCNCC4)cc3c2C(C)C)cc2c(C(=O)N(C)C)cnn12 ; assay system human TLR8 (Homo sapiens, UniProt Q9NR97); pIC50 recorded at < 5.51

Entry Cc1cc(-c2[nH]c3ccc(C4CCN(C(=O)[C@@H]5C[C@@H](O)CN5)CC4)cc3c2C(C)C)cc2ncnn12 ; assay system human TLR8 (Homo sapiens, UniProt Q9NR97); pIC50 recorded at > 7.00

Entry CC(C)c1c(-c2cn(C)c3ncccc23)[nH]c2ccc(C3CCNCC3)cc12 ; assay system human TLR8 (Homo sapiens, UniProt Q9NR97); pIC50 recorded at > 7.00

Entry Cc1ncc(CN2CCC(c3ccc4[nH]c(-c5ccnc6[nH]nc(C)c56)c(C(C)C)c4c3)CC2)[nH]1 ; assay system human TLR8 (Homo sapiens, UniProt Q9NR97); pIC50 recorded at > 7.00

Entry CNCC(=O)N1CCC(c2ccc3[nH]c(-c4cnc5ncnn5c4)c(C(C)C)c3c2)CC1 ; assay system human TLR8 (Homo sapiens, UniProt Q9NR97); pIC50 recorded at 6.00 to 7.00

More entries:
Entry CC(C)c1c(-c2ccn3cnnc3c2)[nH]c2ccc(C3CCN(CC(=O)N(C)C)CC3)cc12 ; assay system human TLR8 (Homo sapiens, UniProt Q9NR97); pIC50 recorded at 6.00 to 7.00

Entry COc1cc(-c2[nH]c3ccc(C4CCN(CC(C)(C)O)CC4)cc3c2C(C)C)cc2nccn12 ; assay system human TLR8 (Homo sapiens, UniProt Q9NR97); pIC50 recorded at > 7.00

###

- tgt: human TLR7 (Homo sapiens, UniProt Q9NYK1)
- Sequence (Q9NYK1 27-1049): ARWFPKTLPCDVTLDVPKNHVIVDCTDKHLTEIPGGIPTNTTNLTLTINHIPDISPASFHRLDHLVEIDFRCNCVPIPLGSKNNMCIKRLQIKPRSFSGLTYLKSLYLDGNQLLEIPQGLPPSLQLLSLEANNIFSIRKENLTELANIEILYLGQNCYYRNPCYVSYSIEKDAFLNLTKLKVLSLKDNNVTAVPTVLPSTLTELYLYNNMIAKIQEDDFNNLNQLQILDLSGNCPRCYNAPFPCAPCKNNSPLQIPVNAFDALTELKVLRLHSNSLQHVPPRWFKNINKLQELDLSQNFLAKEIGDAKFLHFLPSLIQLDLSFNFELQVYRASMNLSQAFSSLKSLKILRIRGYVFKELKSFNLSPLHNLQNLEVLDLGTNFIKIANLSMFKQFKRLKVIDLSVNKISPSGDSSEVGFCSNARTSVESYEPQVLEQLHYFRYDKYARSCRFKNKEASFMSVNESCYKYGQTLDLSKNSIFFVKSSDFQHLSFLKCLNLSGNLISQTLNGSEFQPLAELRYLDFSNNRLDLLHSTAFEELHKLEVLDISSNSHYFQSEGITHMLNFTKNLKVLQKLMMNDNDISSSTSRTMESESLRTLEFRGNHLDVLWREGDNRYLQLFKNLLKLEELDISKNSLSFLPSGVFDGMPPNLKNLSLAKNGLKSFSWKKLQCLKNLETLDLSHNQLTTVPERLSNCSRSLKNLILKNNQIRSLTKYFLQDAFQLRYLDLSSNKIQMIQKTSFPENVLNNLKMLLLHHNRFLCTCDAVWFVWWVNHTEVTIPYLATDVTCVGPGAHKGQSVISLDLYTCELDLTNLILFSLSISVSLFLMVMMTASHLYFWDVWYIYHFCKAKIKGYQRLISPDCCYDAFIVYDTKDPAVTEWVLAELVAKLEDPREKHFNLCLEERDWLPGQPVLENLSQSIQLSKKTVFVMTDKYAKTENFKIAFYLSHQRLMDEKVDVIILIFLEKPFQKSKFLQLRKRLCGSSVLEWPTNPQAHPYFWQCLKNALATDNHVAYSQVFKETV
- assayExplanation: TLR7 inhibition reporter assay (HEK-Blue cells, SEAP reporter, gardiquimod stimulation)
- runConditions: HEK-Blue cells overexpressing human TLR7, SEAP reporter, gardiquimod 7.5 μM
observable: IC50

These recorded examples may help you get a feel for the data.
The reported IC50 of the compound CCc1c(-c2ccc3onc(N)c3c2)[nH]c2ccc(C3CCNCC3)cc12 [Example 95] was 1000 to 50000 nM

The reported IC50 of the compound CNCCN1CCC(c2ccc3[nH]c(-c4ccc5c(c4)OCCN5C)c(C)c3c2)CC1 [Example 673] was > 50000 nM

The reported IC50 of the compound CC(C)c1c(-c2ccn3cnnc3c2)[nH]c2ccc(C3CCN(Cc4ncn(C)n4)CC3)cc12 [Example 880] was 100 to 1000 nM

More entries:
The reported IC50 of the compound CNC(=O)CN1CCC(c2ccc3[nH]c(-c4cc(C)n5cc(C)nc5c4)c(C(C)C)c3c2)CC1 [Example 352] was 100 to 1000 nM

The reported IC50 of the compound CNC(=O)CN1CCC(c2ccc3[nH]c(-c4cc(C)c5nccn5n4)c(C(C)C)c3c2)CC1 [Example 448] was < 100 nM

The reported IC50 of the compound CNCCN1CCC(c2ccc3[nH]c(-c4ccc5scnc5c4)c(C)c3c2)CC1 [compound 659] was 1000 to 50000 nM

The reported IC50 of the compound CC(C)c1c(-c2ccc3nccn3c2)[nH]c2ccc(C3CCNCC3)c(F)c12 [Example 258] was < 100 nM

The reported IC50 of the compound CC(C)c1c(-c2ccc(C#N)c3ncccc23)[nH]c2ccc(C3CCN(CCS(C)(=O)=O)CC3)cc12 [Example 796] was < 100 nM
